System: U2OS
Assay: Incucyte cell viability with U2OS; further: filed as whole numbers so only -1 and 0 and 1 occur
Type: toxicity, cell-based
Settings: human, 18 h, 10 µM, compound concentration 10 uM, replicate number 1, timepoint 18 hours
quantity-measured: Growth Rate
Answer with the value's number alone.

query: For CC(C)c1cc(Nc2nc(N3CCC[C@H](N)C3)ncc2C(N)=O)cc(C(C)C)n1 , what is its reported Growth Rate?
result: 0

query: Reported Growth Rate, compound Cc1cc2c(cc1-c1cc(/C=C/C(=O)O)ccc1O)C(C)(C)CCC2(C)C : ____
result: 1

query: Which Growth Rate is listed for CN(CCOc1ccc(CC2SC(=O)NC2=O)cc1)c1ccccn1 (stereo not given) ?
result: 1

query: Record request: Growth Rate value, item N#Cc1cccc(C(=O)Nc2cc(-c3ccccc3)nn2-c2ccccc2)c1
result: 0

query: Would you mind telling me what Growth Rate value was observed for N#CC1(c2ccccn2)CCN(Cc2cc(C(=O)O)c(=O)n3ccccc23)CC1 ?
result: 0

---

Test system: U2OS
Assay: Multiplex assay against U2OS
Assay type: toxicity, cell-based
Conditions: human, 48 h, 10 µM, compound concentration 10 uM, replicate 2
Label key: met means Population Mitotic Cells (%) under 30%; not met means Population Mitotic Cells (%) of 30% or more.

query: Consider Oc1cccc(-c2nc(N3CCOCC3)c3oc4ncccc4c3n2)c1 . Does its Population Mitotic Cells (%) lie strictly below 30%?
result: not met

query: Threshold test, Population Mitotic Cells (%) < 30%: CCCc1cc(C)[nH]c(=O)c1CNC(=O)c1cc(-c2ccc(N3CCN(C(C)C)CC3)nc2)cc2c1cnn2C(C)C
result: met

query: Population Mitotic Cells (%) strictly < 30% for this molecule? CN1C(=O)[C@@H](NC(=O)c2cc3ccccc3[nH]2)N=C(c2ccccc2)c2ccccc21 [DEVAZEPIDE]
result: met

query: Answer whether the molecule CCCCN(CC)c1nc(C)nc2c1c(C)cn2-c1c(C)cc(C)cc1C.Cl has Population Mitotic Cells (%) strictly less than 30%
result: not met

query: Record Cc1ccc(S(=O)(=O)NC2c3ccccc3Oc3ccccc32)cc1 : is its Population Mitotic Cells (%) strictly below 30%?
result: met

---

Tested on: U2OS
Experiment: Multiplex assay against U2OS
Format: toxicity, cell-based
Conditions: human, 48 h, 1 µM, compound concentration 1 uM, replicate 2
quantity-measured: Population Mitotic Cells (%)
Give your result in % as a bare value.

query: For the compound CC(C)[C@H](CO)Nc1nc(Nc2cccc(Cl)c2)c2ncn(C(C)C)c2n1 [PURVALANOLA] , what Population Mitotic Cells (%) is on record?
result: 40

query: For C[C@@H](Oc1cc(-n2cnc3ccc(CN4CCN(C)CC4)cc32)sc1C(N)=O)c1ccccc1C(F)(F)F [GSK-461364] , what is its reported Population Mitotic Cells (%)?
result: 52

query: Return reported Population Mitotic Cells (%); argument: CN(c1cc(C(F)(F)F)nc(OCCC(=O)O)n1)c1cccc2c1CCC2
result: 60

query: Report Population Mitotic Cells (%) for N#CCNC(=O)c1ccc(-c2ccnc(Nc3ccc(N4CCOCC4)cc3)n2)cc1 [MOMELOTINIB] please.
result: 0

query: Fill in: Population Mitotic Cells (%) of CCCc1cc(C)[nH]c(=O)c1CNC(=O)c1cc(-c2ccc(N3CCN(C(C)C)CC3)nc2)cc2c1cnn2C(C)C is ___
result: 53

query: Reported Population Mitotic Cells (%), compound Cc1ccc(S(=O)(=O)NC2c3ccccc3Oc3ccccc32)cc1 : ____
result: 75

---

Tested on: HEK-293T
Assay: Multiplex assay against HEK293T
Type: toxicity, cell-based
Settings: human, 24 h, 10 µM, compound concentration 10 uM, replicate 1
Class boundaries, taken from values of Population Apoptotic (%), are as follows: bottom range = under 30%, center range = from 30% up to 60%, top range = 60% and over

query: For CC(C)[C@H](CO)Nc1nc(Nc2cccc(Cl)c2)c2ncn(C(C)C)c2n1 , which Population Apoptotic (%) bin applies?
result: top range

query: Which Population Apoptotic (%) category applies to CCCCCNC(=N)N/N=C/c1c[nH]c2ccc(OC)cc12.O=C(O)/C=C\C(=O)O [TEGASEROD MALEATE] here?
result: center range

query: Hi there! Could you help me figure out the category for Cc1ccc(S(=O)(=O)NC2c3ccccc3Oc3ccccc32)cc1 please?
result: center range

query: Could you place Cl.NC[C@@H]1O[C@H](C23CC4CC(CC(C4)C2)C3)Cc2c1ccc(O)c2O in its proper category? Many thanks.
result: center range

query: Lab log: CN1C(=O)[C@@H](NC(=O)c2cc3ccccc3[nH]2)N=C(c2ccccc2)c2ccccc21 [DEVAZEPIDE] — assign Population Apoptotic (%) category
result: center range

query: Band for CCOC(=O)CCNc1cc(N2CCc3ccccc3CC2)nc(-c2ccccn2)n1 ?
result: center range

query: For this compound, which bin applies? CCOc1ccn(-c2ccc(F)cc2)c(=O)c1C(=O)Nc1ccc(Oc2ccnc(N)c2Cl)c(F)c1
result: bottom range

query: Sort into band: CC[C@@]1(O)C(=O)OCc2c1cc1n(c2=O)Cc2cc3ccccc3nc2-1
result: bottom range

query: Tag the class for CC(C)c1cc(Nc2nc(N3CCC[C@H](N)C3)ncc2C(N)=O)cc(C(C)C)n1
result: top range

query: Each compound maps to one class by Population Apoptotic (%). Which class for CCCCN(CC)c1nc(C)nc2c1c(C)cn2-c1c(C)cc(C)cc1C.Cl ?
result: top range

query: Class? Entry: CN(c1cc(C(F)(F)F)nc(OCCC(=O)O)n1)c1cccc2c1CCC2
result: center range

query: Band assignment needed for CC[C@@H]1C(=O)N(C)c2cnc(Nc3ccc(C(=O)NC4CCN(C)CC4)cc3OC)nc2N1C1CCCC1 please.
result: center range

query: Assign a bin to C[C@@H](Oc1cc(-n2cnc3ccc(CN4CCN(C)CC4)cc32)sc1C(N)=O)c1ccccc1C(F)(F)F
result: top range

query: Exercise: read the entry CC(Cc1ccc(O)c(O)c1)C(C)Cc1ccc(O)c(O)c1 (stereo unspecified) [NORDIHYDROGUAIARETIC ACID] and state which class it falls under.
result: bottom range

query: Which class does N#CCNC(=O)c1ccc(-c2ccnc(Nc3ccc(N4CCOCC4)cc3)n2)cc1 fall in?
result: center range

query: Looking at Cc1c(P(=S)(c2ccccc2)c2ccccc2)n2ccccc2[n+]1C/C=C/c1ccccc1.[Br-] , which class would you pick?
result: center range

query: # classify by Population Apoptotic (%) band: Oc1cccc(-c2nc(N3CCOCC3)c3oc4ncccc4c3n2)c1
result: top range

query: In plain terms, what class is CC(/C=C1\SC(=S)N(CCCC(=O)Nc2ccc(C(=O)O)c(O)c2)C1=O)=C\c1ccccc1 ?
result: center range

query: Band of NC(=O)c1ccc2nc(-c3ccc(C4(N)CCC4)cc3)c(-c3ccccc3)n2n1 ?
result: bottom range

query: Which class holds CC[C@H](Nc1ncnc2[nH]cnc12)c1nc2cccc(F)c2c(=O)n1-c1ccccc1 ?
result: bottom range

query: For this compound, which bin applies? Cl.Cn1c2c(c3ccc(Cl)c(Cl)c31)C(C#N)C1(CCNCC1)NC2=O (stereo unspecified)
result: bottom range

query: The entry to classify is CCCc1cc(C)[nH]c(=O)c1CNC(=O)c1cc(-c2ccc(N3CCN(C(C)C)CC3)nc2)cc2c1cnn2C(C)C ; which class holds it?
result: top range

query: Please let me know in which category the item c1ccc(-c2oc3ncnc(NC[C@@H]4CCCO4)c3c2-c2ccccc2)cc1 belongs.
result: top range

query: Hi, small favor: classify Cc1ccc(NC(=O)Nc2cc(C(F)(F)F)ccc2F)cc1Nc1ccc2c(c1)NC(=O)/C2=C\c1ccc[nH]1 by its Population Apoptotic (%) when you get a moment.
result: bottom range

query: Consider C=CC(=O)Nc1cc(-n2c(=O)ccc3cnc4ccc(-c5ccc(NS(C)(=O)=O)cc5)cc4c32)ccc1C . To which Population Apoptotic (%) class does it belong?
result: center range

query: Determine which band this compound sits in: Cc1c(Nc2ccc(S(=O)(=O)N3CCN(C)CC3)cc2F)nc2ccc(-c3cnn(C4CC4)c3)cn2c1=O
result: center range

---

System: Fibroblast
Assay: Multiplex assay against human fibroblast
Format: toxicity, cell-based
Conditions: 48 h, 10 µM, compound concentration 10 uM, replicate 2
quantity-measured: Population Membrane Permeable-Phenotype (%)
Report the figure in % without appending any unit label.

query: Need Population Membrane Permeable-Phenotype (%) of CC(C)c1cc(Nc2nc(N3CCC[C@H](N)C3)ncc2C(N)=O)cc(C(C)C)n1 , thanks.
result: 19

query: Given the entry CN1C(=O)[C@@H](NC(=O)c2cc3ccccc3[nH]2)N=C(c2ccccc2)c2ccccc21 [DEVAZEPIDE] , report its measured Population Membrane Permeable-Phenotype (%).
result: 29

query: Item under review: Cl.NC[C@@H]1O[C@H](C23CC4CC(CC(C4)C2)C3)Cc2c1ccc(O)c2O . Reported Population Membrane Permeable-Phenotype (%)?
result: 14

query: Recorded Population Membrane Permeable-Phenotype (%) of Cc1c(P(=S)(c2ccccc2)c2ccccc2)n2ccccc2[n+]1C/C=C/c1ccccc1.[Br-] , please.
result: 25

query: Given the entry CC(Cc1ccc(O)c(O)c1)C(C)Cc1ccc(O)c(O)c1 (stereo not given) [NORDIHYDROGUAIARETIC ACID] , report its measured Population Membrane Permeable-Phenotype (%).
result: 9

query: Dear colleague, I am looking for the recorded Population Membrane Permeable-Phenotype (%) of the following compound: CCCCCNC(=N)N/N=C/c1c[nH]c2ccc(OC)cc12.O=C(O)/C=C\C(=O)O [TEGASEROD MALEATE]
result: 30

query: Consider the compound shown here: CCCCN(CC)c1nc(C)nc2c1c(C)cn2-c1c(C)cc(C)cc1C.Cl What is its recorded Population Membrane Permeable-Phenotype (%)?
result: 20

query: Report Population Membrane Permeable-Phenotype (%) for C[C@@H](Oc1cc(-n2cnc3ccc(CN4CCN(C)CC4)cc32)sc1C(N)=O)c1ccccc1C(F)(F)F [GSK-461364] please.
result: 5

query: Could you share which Population Membrane Permeable-Phenotype (%) value was measured for CC(C)[C@H](CO)Nc1nc(Nc2cccc(Cl)c2)c2ncn(C(C)C)c2n1 [PURVALANOLA] ?
result: 7

query: Look at this compound and give its reported Population Membrane Permeable-Phenotype (%). CN1CCN(Cc2ccc(-c3cnc4[nH]cc(-c5ccc6[nH]ccc6c5)c4c3)cc2)CC1
result: 0

query: Given the compound Cc1c(Nc2ccc(S(=O)(=O)N3CCN(C)CC3)cc2F)nc2ccc(-c3cnn(C4CC4)c3)cn2c1=O , what is its reported Population Membrane Permeable-Phenotype (%)?
result: 16

query: State the recorded Population Membrane Permeable-Phenotype (%) for this entry: CC(/C=C1\SC(=S)N(CCCC(=O)Nc2ccc(C(=O)O)c(O)c2)C1=O)=C\c1ccccc1
result: 14

query: Please report the recorded Population Membrane Permeable-Phenotype (%) for c1ccc(-c2oc3ncnc(NC[C@@H]4CCCO4)c3c2-c2ccccc2)cc1 .
result: 16

query: Could you share which Population Membrane Permeable-Phenotype (%) value was measured for N#Cc1cccc(C(=O)Nc2cc(-c3ccccc3)nn2-c2ccccc2)c1 ?
result: 25

query: Fill in: Population Membrane Permeable-Phenotype (%) of N#CCNC(=O)c1ccc(-c2ccnc(Nc3ccc(N4CCOCC4)cc3)n2)cc1 [MOMELOTINIB] is ___
result: 11

meta.source: ChEMBL document CHEMBL4689842
